The origin of these recorded values is ChEMBL document CHEMBL1128510.

experiment: Ability to inhibit rabbit liver Acyl coenzyme A:cholesterol acyltransferase 1.; design: species or system Oryctolagus cuniculus
value.kind: pIC50
pIC50 (log units): -log10 of the concentration in mol/L.

// query # input molecule: COc1ccc2c(c1NC(=O)c1ccc(OCCCCCCOc3ccc(Cl)cc3)cc1)OCCC2=O ; wanted: its pIC50
// result 7.23

====

// reported pIC50 for each item listed
assay: Inhibition of rabbit small-intestinal Acyl coenzyme A:cholesterol acyltransferase 1; design: species or system Oryctolagus cuniculus
pIC50 (log units): -log10 of the concentration in mol/L.

The cases that follow already have their pIC50 on record.
> print(dat)
                            chemical.smiles  measured.value
1  CCCCCCCCCCC(C)(C)C(=O)Nc1c(OC)ccc2c1OCCC2            6.74
2  CCCCCCCCCCC(C)(C)C(=O)Nc1c(OC)c(NC)cc2c1OCCC2=O            7.31
3  CCCc1ccc(CCCC(C)(C)C(=O)Nc2c(OC)ccc3c2OCCC3=O)cc1            7.57

// query # input compound: CCCCCCCCCCC(C)(C)C(=O)Nc1c(OC)ccc2c(=O)ccoc12 ; wanted: its pIC50
// result 7.11

====

assay: Inhibition of rabbit small-intestinal Acyl coenzyme A:cholesterol acyltransferase 1; design: species or system Oryctolagus cuniculus
pIC50: −log10 of the molar value.
Class Yes: pIC50 at least 7. Class No: pIC50 below 7.

Please review the entries below; each comes with its answer.
> print(dat)
                            chemical.smiles  cat
1  Cc1ccc2c(c1NC(=O)C(C)(C)Cc1ccccc1)OCCC2=O   No
2  CCCCCCCCCCOc1ccc(C(=O)Nc2c(OCCCCCCCCCC)ccc3c2OCCC3=O)cc1   No
3  CCCCCCCCCCOc1ccc2c(c1NC(=O)C(C)(C)CCCCCCCCCC)OCCC2=O   No

// query Textbook exercise: given the entry COc1ccc2c(c1NC(=O)C(C)(C)CCCCCCc1ccccc1)OCCC2=O , state whether its pIC50 is greater than or equal to 7.
// result Yes

// query Textbook exercise: given the entry CCCCCCCCCCC(C)(C)C(=O)Nc1c(OC)ccc2c(=O)cc(CC)oc12 , state whether its pIC50 is greater than or equal to 7.
// result No

// query Textbook exercise: given the entry CCCCCCCCCCC(C)(C)C(=O)Nc1c(OCCC)ccc2c1OCCC2=O , state whether its pIC50 is greater than or equal to 7.
// result Yes

====

test: Inhibition of rabbit small-intestinal Acyl coenzyme A:cholesterol acyltransferase 1; parameters: species or system Oryctolagus cuniculus
value.kind: IC50 (nM)
Number only, in nM; omit the unit.

The cases that follow already have their IC50 on record.
> print(dat)
                            chemical.smiles  units.of.measure  measured.value
1  Cc1ccc2c(c1NC(=O)C(C)(C)CCCCCOc1ccc(Cl)cc1)OCCC2=O                nM             470
2  CCCCCCCCCCOc1ccc2c(c1NC(=O)C(C)(C)CCCCCCOc1ccc(Cl)cc1)OCCC2=O                nM             140
3  CCCCCCCCC(C)(C)C(=O)Nc1c(OC)ccc2c1OCCC2=O                nM              31
4  CC(C)(C)C(=O)Nc1c(OCCCCCCc2ccccc2)ccc2c1OCCC2=O                nM              24
5  CCCCCCCCCCCCC(C)(C)C(=O)Nc1c(OC)ccc2c1OCCC2=O                nM             7.5

// query # input molecule: COc1ccc2c(c1NC(=O)c1ccc(OCCCCCCOCC(C)C)cc1)OCCC2=O ; wanted: its IC50
// result 40

// query # input molecule: CCCCCCCCCCC(C)(C)C(=O)Nc1c(OC)ccc2c1OCCC2=O ; wanted: its IC50
// result 13

// query # input molecule: CCCCCCOc1ccc(CCCC(C)(C)C(=O)Nc2c(OC)ccc3c2OCCC3=O)cc1 ; wanted: its IC50
// result 16
